Measured DC50 of individual entries
system: SMARCA4 (Homo sapiens, UniProt P51532)
Construct: SMARCA2 and SMARCA4 protein degradation in MV4-11 cells; endogenous in cells; host or cells: MV4-11
Sequence (P51532 whole entry): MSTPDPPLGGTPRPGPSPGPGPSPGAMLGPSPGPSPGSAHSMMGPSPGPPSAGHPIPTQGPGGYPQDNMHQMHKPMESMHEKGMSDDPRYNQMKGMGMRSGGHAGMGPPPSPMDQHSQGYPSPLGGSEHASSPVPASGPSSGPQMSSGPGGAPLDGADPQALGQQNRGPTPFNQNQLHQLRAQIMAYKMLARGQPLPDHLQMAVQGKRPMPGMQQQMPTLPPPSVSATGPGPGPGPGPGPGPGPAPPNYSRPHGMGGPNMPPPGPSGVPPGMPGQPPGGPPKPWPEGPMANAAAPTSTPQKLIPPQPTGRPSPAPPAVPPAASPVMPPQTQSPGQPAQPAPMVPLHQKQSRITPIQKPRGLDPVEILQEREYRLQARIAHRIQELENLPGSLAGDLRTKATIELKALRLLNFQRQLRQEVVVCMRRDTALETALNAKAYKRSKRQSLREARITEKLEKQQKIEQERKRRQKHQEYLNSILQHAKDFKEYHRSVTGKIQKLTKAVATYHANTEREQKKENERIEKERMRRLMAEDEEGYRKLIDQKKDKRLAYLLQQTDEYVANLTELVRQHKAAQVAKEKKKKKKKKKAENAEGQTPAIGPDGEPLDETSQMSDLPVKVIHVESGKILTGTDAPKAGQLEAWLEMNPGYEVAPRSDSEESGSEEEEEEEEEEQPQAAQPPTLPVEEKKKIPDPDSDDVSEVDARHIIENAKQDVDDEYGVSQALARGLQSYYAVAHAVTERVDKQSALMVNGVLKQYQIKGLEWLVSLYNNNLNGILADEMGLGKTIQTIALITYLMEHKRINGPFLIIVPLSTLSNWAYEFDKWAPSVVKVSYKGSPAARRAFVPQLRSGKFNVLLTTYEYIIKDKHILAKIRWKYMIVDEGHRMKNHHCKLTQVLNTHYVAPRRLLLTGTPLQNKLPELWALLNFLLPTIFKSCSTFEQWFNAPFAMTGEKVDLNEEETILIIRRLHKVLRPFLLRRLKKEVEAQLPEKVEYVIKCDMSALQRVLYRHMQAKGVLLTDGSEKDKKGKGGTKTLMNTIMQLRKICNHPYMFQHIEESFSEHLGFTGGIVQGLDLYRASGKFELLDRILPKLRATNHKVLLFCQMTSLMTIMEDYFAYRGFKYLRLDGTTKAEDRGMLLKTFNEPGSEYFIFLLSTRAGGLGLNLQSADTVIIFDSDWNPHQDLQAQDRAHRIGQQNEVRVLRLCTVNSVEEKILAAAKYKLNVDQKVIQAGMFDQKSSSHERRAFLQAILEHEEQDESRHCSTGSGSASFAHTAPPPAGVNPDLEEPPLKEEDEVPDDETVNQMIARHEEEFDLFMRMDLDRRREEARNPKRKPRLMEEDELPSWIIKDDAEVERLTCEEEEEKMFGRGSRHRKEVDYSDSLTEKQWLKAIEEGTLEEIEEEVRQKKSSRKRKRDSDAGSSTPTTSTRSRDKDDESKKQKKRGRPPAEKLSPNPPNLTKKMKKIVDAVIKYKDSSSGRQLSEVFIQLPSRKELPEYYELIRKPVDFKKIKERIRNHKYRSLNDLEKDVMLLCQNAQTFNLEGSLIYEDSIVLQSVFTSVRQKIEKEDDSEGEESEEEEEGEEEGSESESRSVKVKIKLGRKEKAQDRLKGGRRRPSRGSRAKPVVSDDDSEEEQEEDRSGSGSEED
protocolSummary: SMARCA4 Western blot MV4-11 degradation
Assay type: cell-based
conditionParameters: MV4-11 cells, 24 h, read-out: SMARCA4 WB MV411 degradation 24 h: Average external-Abs DC50

Example compounds with recorded DC50:
Cc1ncsc1-c1ccc(CNC(=O)[C@@H]2C[C@@H](O)CN2C(=O)[C@@H](NC(=O)c2ccc(C#CCCCN3CCC(Cn4cc(-c5cc(-c6ccccc6O)nnc5N)cn4)CC3)cc2)C(C)(C)C)cc1; < 100 nM
Cc1ncsc1-c1ccc(CNC(=O)[C@@H]2C[C@@H](O)CN2C(=O)[C@@H](NC(=O)[C@H]2CC[C@H](c3nccc(N4C5CCC4CN(c4cc(-c6ccccc6O)nnc4N)C5)n3)CC2)C(C)(C)C)cc1; < 100 nM
Cc1ncsc1-c1ccc(CNC(=O)[C@@H]2C[C@@H](O)CN2C(=O)[C@@H](NC(=O)C2CN(Cc3cnc(N4C5CCC4CN(c4cc(-c6ccccc6O)nnc4N)C5)nc3)C2)C(C)(C)C)cc1; < 100 nM
Cc1ncsc1-c1ccc(CNC(=O)[C@@H]2C[C@@H](O)CN2C(=O)[C@@H](NC(=O)c2ccc(N3CC(n4cc(-c5cc(-c6ccccc6O)nnc5N)cn4)C3)cc2)C(C)(C)C)cc1; < 100 nM
Cc1ncsc1-c1ccc(CNC(=O)[C@@H]2C[C@@H](O)CN2C(=O)[C@@H](NC(=O)[C@H]2CC[C@H](c3cnc(N4C5CCC4CN(c4cc(-c6ccccc6O)nnc4N)C5)nc3)CC2)C(C)(C)C)c(C(=O)N(C)C)c1; < 100 nM
Cc1ncsc1-c1ccc(CNC(=O)[C@@H]2C[C@@H](O)CN2C(=O)[C@@H](NC(=O)C[C@H]2CC[C@H](c3cnc(N4C5CCC4CN(c4cc(-c6ccccc6O)nnc4N)C5)nc3)CC2)C(C)(C)C)cc1; < 100 nM
Cc1ncsc1-c1ccc(CNC(=O)[C@@H]2C[C@@H](O)CN2C(=O)[C@@H](NC(=O)[C@H]2CC[C@H](N3CCC(c4cnc(N5C6CCC5CN(c5cc(-c7ccccc7O)nnc5N)C6)nc4)CC3)CC2)C(C)(C)C)cc1; 100 to 500 nM
Cc1ncsc1-c1ccc(CNC(=O)[C@@H]2C[C@@H](O)CN2C(=O)[C@@H](NC(=O)CCCCN2CCC(CN3CCC(Cn4cc(-c5cc(-c6ccccc6O)nnc5N)cn4)CC3)CC2)C(C)(C)C)cc1; > 1000 nM

Then there is this compound:
Q: Input Cn1c(=O)n(C2CCC(=O)NC2=O)c2ccc(C3CC4(C3)CC(N3CCC(c5cnc(N6C7CCC6CN(c6cc(-c8ccccc8O)nnc6N)C7)nc5)CC3)C4)cc21 (single isomer, unassigned) [I-536 (P3)] , output reported DC50.
Result: < 100 nM

----------
Entries and their Dmax
system: SMARCA2 (Homo sapiens)
Sequence (P51531 whole entry): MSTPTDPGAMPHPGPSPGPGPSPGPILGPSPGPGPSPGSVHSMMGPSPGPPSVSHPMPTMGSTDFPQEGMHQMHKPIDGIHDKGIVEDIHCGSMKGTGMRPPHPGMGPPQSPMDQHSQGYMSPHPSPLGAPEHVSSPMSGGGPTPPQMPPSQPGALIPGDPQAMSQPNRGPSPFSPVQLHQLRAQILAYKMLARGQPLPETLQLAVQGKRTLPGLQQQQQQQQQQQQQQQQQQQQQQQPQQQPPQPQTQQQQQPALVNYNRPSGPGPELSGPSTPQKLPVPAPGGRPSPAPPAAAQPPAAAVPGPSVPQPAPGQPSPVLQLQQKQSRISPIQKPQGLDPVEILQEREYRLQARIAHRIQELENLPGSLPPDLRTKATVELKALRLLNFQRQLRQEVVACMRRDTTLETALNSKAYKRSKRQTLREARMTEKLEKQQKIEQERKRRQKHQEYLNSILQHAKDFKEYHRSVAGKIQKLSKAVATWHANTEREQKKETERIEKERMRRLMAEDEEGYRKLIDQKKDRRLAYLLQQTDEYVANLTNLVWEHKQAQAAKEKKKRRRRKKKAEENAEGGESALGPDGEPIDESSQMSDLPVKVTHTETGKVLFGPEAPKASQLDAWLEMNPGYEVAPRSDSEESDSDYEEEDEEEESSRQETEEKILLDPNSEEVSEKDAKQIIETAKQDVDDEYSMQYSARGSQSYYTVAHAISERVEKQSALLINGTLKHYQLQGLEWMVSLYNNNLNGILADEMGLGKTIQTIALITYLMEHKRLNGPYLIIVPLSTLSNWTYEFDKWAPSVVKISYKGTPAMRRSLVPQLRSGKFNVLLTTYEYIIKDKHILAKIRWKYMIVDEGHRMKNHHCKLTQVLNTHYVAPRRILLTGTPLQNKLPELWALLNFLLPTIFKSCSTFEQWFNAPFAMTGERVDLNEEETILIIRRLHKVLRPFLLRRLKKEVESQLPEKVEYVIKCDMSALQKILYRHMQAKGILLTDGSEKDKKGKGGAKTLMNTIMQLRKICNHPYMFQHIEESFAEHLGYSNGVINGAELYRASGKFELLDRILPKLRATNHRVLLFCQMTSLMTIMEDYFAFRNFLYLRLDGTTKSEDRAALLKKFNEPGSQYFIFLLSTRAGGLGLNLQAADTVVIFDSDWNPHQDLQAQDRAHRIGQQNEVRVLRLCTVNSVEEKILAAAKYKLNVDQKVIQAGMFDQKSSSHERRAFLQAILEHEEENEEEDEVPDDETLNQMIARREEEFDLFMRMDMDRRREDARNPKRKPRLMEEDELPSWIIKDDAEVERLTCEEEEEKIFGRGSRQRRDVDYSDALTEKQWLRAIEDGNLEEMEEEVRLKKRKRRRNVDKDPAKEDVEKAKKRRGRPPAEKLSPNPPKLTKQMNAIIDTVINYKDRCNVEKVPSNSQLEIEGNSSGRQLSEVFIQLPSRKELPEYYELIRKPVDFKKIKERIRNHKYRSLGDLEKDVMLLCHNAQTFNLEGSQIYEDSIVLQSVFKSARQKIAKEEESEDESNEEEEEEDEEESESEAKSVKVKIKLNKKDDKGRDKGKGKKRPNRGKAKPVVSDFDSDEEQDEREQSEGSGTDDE
protocolSummary: MSD SMARCA2 degradation in A549 cell line
Assay type: cell-based
conditionParameters: A549, A549 cells, 24 h

Cc1ncsc1-c1ccc(CNC(=O)[C@@H]2C[C@@H](O)CN2C(=O)[C@@H](NC(=O)C2CC(N3CCC(n4cc(-c5cc(-c6ccccc6O)nnc5N)cn4)CC3)C2)C(C)(C)C)cc1 (stereo partly drawn) [I-484]; 70 to 90%
Cc1ncsc1-c1ccc(CNC(=O)[C@@H]2C[C@@H](O)CN2C(=O)[C@@H](NC(=O)[C@H]2CC[C@H](CN(C)Cc3cnc(N4C5CCC4CN(c4cc(-c6ccccc6O)nnc4N)C5)nc3)CC2)C(C)(C)C)cc1 [I-486]; > 90%

Please turn your attention to the following entry.
Q: Read off the recorded Dmax for Cc1ncsc1-c1ccc(CNC(=O)[C@@H]2C[C@@H](O)CN2C(=O)[C@@H](NC(=O)[C@H]2CC[C@H](C(=O)N(C)Cc3cnc(N4C5CCC4CN(c4cc(-c6ccccc6O)nnc4N)C5)nc3)CC2)C(C)(C)C)cc1 [I-396]
Result: 70 to 90%
